A collection of molecules and their measured TGI
System: DMS 273 small cell lung
Assay comment: NCI tumour cell line growth inhibition, 48 h

Example molecules with recorded TGI:
| Molecule | System name | TGI |
| --- | --- | --- |
| CC(=O)OCC1OC(n2c(=O)n(-c3ccccc3)c(=O)c3cc(Br)cc(Br)c32)C(OC(C)=O)C(OC(C)=O)C1OC(C)=O (configuration not stated) | DMS 273 small cell lung | > 100 µM |
| Cc1ccc(S(=O)(=O)SCc2ccccc2CSS(=O)(=O)c2ccc(C)cc2)cc1 | DMS 273 small cell lung | 44.2 µM |
| CC(C)(C)OC(=O)NC1CCC[C@H]1O (some centres not stated) | DMS 273 small cell lung | > 100 µM |
| COc1cc2c(c(OC)c1OC)-c1ccc(SC)c(=O)cc1[C@@H](NCc1cccc(C#N)c1)CC2 | DMS 273 small cell lung | < 0.0075 µM |
| COc1cc2c(cc1Oc1ccc(OC)c3c1CC1c4c(cc(OC)c(OC)c4-3)CCN1C)CC1c3c(cc(OC)c(OC)c3-2)CCN1C (configuration not stated) | DMS 273 small cell lung | 7.06 µM |
| NCCCC1NC(=O)/C(=C(O)/C=C/C2CCC[C@@H]2CC2SCCS2)C1=O (some centres not stated) | DMS 273 small cell lung | > 100 µM |

Per the records, this molecule ( Cc1nc2ccccc2c(=O)n1NC(=S)Nc1cccc(Cl)c1 ) has TGI equal to > 100 µM

###

Test system: SK-MEL-28 melanoma
Assay comment: NCI tumour cell line growth inhibition, 48 h
The entries below come with measured TGI values attached.

| Smiles input | TGI |
| --- | --- |
| CC[C@H](C)C1=C(O)[N@+]2([O-])Oc3ccc(-c4c(O)c(O)c(-c5ccc(OC(C)=O)cc5)c(OC(C)=O)c4OC(C)=O)cc3O[C@]2([C@@H](C)CC)C(=O)N1O | > 50 µM |

Looking up Nc1c(C(=O)c2cccc(CCC3(O)CCCC3)c2)cnn1-c1ccc(F)cc1 , I see its TGI listed as > 25 µM

# TGI of O=C1[C@@H]2C3SC(c4ccccc43)[C@@H]2C(=O)N1c1ccccc1 = > 100 µM

For record C#C[C@@]1(O)[C@@H](CO)O[C@@H](n2ccc3c(N)ncnc32)[C@@H]1O the listed TGI is 20.2 µM

###

Test system: HS 578T breast
Assay comment: NCI tumour cell line growth inhibition, 48 h
Reported log10 of TGI is given for each of the following molecules.
Use the decimal logarithm of TGI (µM).

Reference set, count: 4
| Molecule | Property name | Reported value |
| --- | --- | --- |
| Cn1c(Sc2ccc(-c3cccnc3)n2C)ccc1-c1cccnc1 | log10 of TGI | 0.99 |
| COc1cccc(-n2ncc3c(N/N=C/c4ccc(S(C)(=O)=O)cc4)ncnc32)c1 | log10 of TGI | 0.87 |
| Cc1ccc(C(CC(=O)C(C)(C)CN2CCCCC2)SCCS(=O)(=O)O)cc1 (centres undefined) | log10 of TGI | 1.84 |
| CN1C(=O)c2c(c3c4ccccc4n(C4OC(CO)C(O)C(O)C4O)c3c3[nH]c4ccccc4c23)C1=O (centres undefined) | log10 of TGI | 1.33 |

CN1CCN(Cc2ccc(NC(=O)c3nc4ccc5[nH]ncc5c4c4c3CCC4)cc2C(F)(F)F)CC1 yielded log10 of TGI of 0.22

For record O=c1oc2ccc(Cl)cc2c(=O)n1-c1cc(C(F)(F)F)cc(C(F)(F)F)c1 the listed log10 of TGI is -0.01

Looking up O=C1c2cc3c(cc2[C@@H]2[C@H]1c1ccc([N+](=O)[O-])cc1C(=O)N2CCCCl)OCO3 , I found its log10 of TGI recorded as 1.79

Record summary for CC[C@H](C)[C@H](NC(=O)Nc1ccccc1)C(=O)N(C)[C@H](C[C@@H](OC(C)=O)c1nc(C(=O)N[C@@H](Cc2ccccc2)C[C@H](C)C(=O)OC)cs1)C(C)C : reported log10 of TGI = 0.94

The molecule identified as O=C(Nc1sccc1S(=O)(=O)c1ccc(Cl)cc1)C(F)(F)F registered its log10 of TGI at 1.86

###

Quick list: TGI per entry.
Test system: SF-268 CNS
Assay comment: NCI tumour cell line growth inhibition, 48 h

Example cases with answers are listed next.
| Molecule | System name | Reported value |
| --- | --- | --- |
| CC1(c2nc3ccccc3[nH]2)CCC(C(N)=O)C(C)(C)O1 (stereo not drawn) | SF-268 CNS | > 100 µM |
| N#Cc1cccc(/C=C(/C(=O)c2ccccc2)c2ccccc2)c1 | SF-268 CNS | 17.2 µM |

Briefly, TGI measured for Cc1cc2c(cc1C)C(=O)C1(C2)Cc2c(ccc(C)c2C)C1=O (stereo not drawn) : > 100 µM

For record COc1cc2nc(-c3ccccc3F)[nH]c(=O)c2cc1OC the listed TGI is > 100 µM

Record COc1cc2c(cc1OC)C1CCc3ccccc3CN1CC2 (stereo not drawn) . Reported TGI: > 100 µM

###

Test system: KM12 colon
Assay comment: NCI tumour cell line growth inhibition, 48 h
Where a SMILES comes first, the peptide text is derived from it.
Property name: TGI

Example entries begin here.
| Compound | TGI |
| --- | --- |
| COC(=O)c1c2c(c(-c3ccccc3)c3c1-c1nc(Cl)ccc1CC3)CCc1ccc(Cl)nc1-2 | > 100 µM |
| CC(=O)NC(CS)C(=O)NC(CO)C(=O)NC(CO)C(=O)NC(Cc1c[nH]c2ccccc12)C(=O)N1CCCC1C(=O)NC(CO)C(=O)NC(Cc1c[nH]c2ccccc12)C(=O)NC(Cc1c[nH]cn1)C(=O)NC(CO)C(=O)NC(Cc1c[nH]c2ccccc12)C(=O)NCC(=O)NCC(=O)NC(CC(=O)O)C(=O)NC(CCC(N)=O)C(=O)NC(CCCCN)C(=O)NC(Cc1ccccc1)C(=O)NC(CCCNC(=N)N)C(=O)NC(CCCCN)C(N)=O (stereo not drawn) (Ac-CSSWPSWHSWGGDQKFRK-NH2; configuration not given here) | > 25 µM |
| Nc1nnc(N)n1NC(=O)C(=O)Nc1ccc([N+](=O)[O-])cc1 | > 100 µM |
| Cc1nc2ccccc2c(=O)n1NC(=S)Nc1cccc(Cl)c1 | > 100 µM |
| O=C1Oc2ccccc2C(=O)/C1=C/N1C(=O)N/C(=C\c2cccc(O)c2)C1=O | > 100 µM |

Record CO[C@@H]1C=C[C@@]23c4cc5c(cc4C(O)N(CC2O)C3C1)OCO5 (stereo partly drawn) ; system KM12 colon; TGI = 17 µM

OCc1ccc2c(c1)CC1(C2)Cc2cc3c(cc2C1)CCC3 on KM12 colon gives TGI = > 100 µM

With KM12 colon as the test system, COc1c(Cl)cc(S(=O)O)cc1Cl showed TGI of > 100 µM

###

System: MDA-MB-435
Where a SMILES comes first, the peptide text is derived from it. [ ]: non-standard residue; d: D form. NMeY = CN[C@@H](Cc1ccc(O)cc1)C(=O)O; dNMeF = CN[C@H](Cc1ccccc1)C(=O)O; Sar = CNCC(=O)O
Choose the fitting class; nothing outside Yes = active, No = inactive is accepted.

See these solved cases before continuing.
| Compound | Cat |
| --- | --- |
| Cc1ccc(N=Nc2c(N)nn(-c3ccccc3)c2N)cc1 | Yes |
| COc1cc2ccnc3c2c(c1OC)-c1ccc(=O)ccc1-3 | No |
| O=C1c2cc3c(cc2[C@@H]2[C@H]1c1ccc([N+](=O)[O-])cc1C(=O)N2CCCCl)OCO3 | Yes |
| Cc1ccc2c(Nc3cccc(Cl)c3F)ncc(NC(=O)c3csc4c(N)ncnc34)c2c1 | Yes |

Ask: Could you please tell me the result logged for COC(=O)c1ccc2c(c1)C(=O)c1c-2n(CCCN)c(=O)c2cc([N+](=O)[O-])ccc12 in this assay?
Reply: Yes

Ask: Answer briefly: the call reported for CN1CCN(Cc2ccc(NC(=O)c3nc4ccc5[nH]ncc5c4c4c3CCC4)cc2C(F)(F)F)CC1 in this assay.
Reply: No

Ask: Would you mind telling me which call this test gave CC[C@H](C)[C@@H]1NC(=O)[C@H](Cc2ccc(O)cc2)N(C)C(=O)[C@H](Cc2ccccc2)NC(=O)CN(C)C(=O)[C@@H]2CCCN2C(=O)[C@@H](Cc2ccccc2)N(C)C(=O)[C@H](CC(C)C)NC1=O (cyclo(F[NMeY]IL[dNMeF]P[Sar])) ?
Reply: Yes

###

Tested on: U251 CNS
// classify into yes (1) (active), no (0) (inactive)

Check out these entries, answers already filled in.
| Compound | Cat |
| --- | --- |
| N#Cc1cccc(/C=C(/C(=O)c2ccccc2)c2ccccc2)c1 | no (0) |
| O=C(NNc1ccccc1)OCc1ccccc1 | no (0) |
| CCOC(=O)c1ccc(Nc2sc(C(=O)c3cccc([N+](=O)[O-])c3)c(N)c2C#N)cc1 | yes (1) |
| Fc1ccc(-c2nnc3sc(COc4ccccc4Cl)nn23)cc1Cl | no (0) |
| c1ccc(-c2nnc(Nc3ccc4c(c3)OCCO4)o2)c(NCc2ccncc2)c1 | yes (1) |
| C=CC(=O)N1CCC([C@@H]2CCNc3c(C(N)=O)c(-c4ccc(Oc5ccccc5)cc4)nn32)CC1 | no (0) |
| CCC[CH2][Sn]([CH2]CCC)([O]C(=O)c1cc(OC)c(OC)cc1OC)[O]C(=O)c1cc(OC)c(OC)cc1OC | no (0) |
| CC(=O)OC1CCC2(C)C(CCC3C4CC=C(C(C)=O)C4(C)OC(=O)CC32)C1 (centres undefined) | no (0) |

Ask: Test call, this compound: CC[C@H](C)[C@H](NC(=O)Nc1ccccc1)C(=O)N(C)[C@H](C[C@@H](OC(C)=O)c1nc(C(=O)N[C@@H](Cc2ccccc2)C[C@H](C)C(=O)OC)cs1)C(C)C
Reply: no (0)
